Tested on: SK-OV-3
READOUT_TYPE: GI50 (µM)

- CCn1ccnc1C(=O)/C=C/c1ccc(CC(=O)Nc2ccc(F)cc2)cc1 [Compound 31]: 6.97
- Cn1ccnc1C(=O)/C=C/c1ccc(CC(=O)Nc2ccc(F)cc2)cc1 [Compound 28]: 9.81
- Cc1ccc(NC(=O)Cc2ccc(/C=C/C(=O)c3ncc[nH]3)cc2)cc1 [Compound 20]: 12.8
- O=C(Cc1ccc(/C=C/C(=O)c2ncc[nH]2)cc1)Nc1ccc(F)cc1 [Compound 22]: 9.38
- O=C(Cc1ccc(/C=C/C(=O)c2ncc[nH]2)cc1)Nc1ccc(C(F)(F)F)cc1 [Compound 24]: 7.66
- Cn1ccnc1C(=O)/C=C/c1ccc(CC(=O)Nc2ccc(Cl)cc2)cc1 [Compound 30]: 8.79
- O=C(Cc1ccc(/C=C/C(=O)c2ncc[nH]2)cc1)Nc1ccc(Cl)cc1 [Compound 25]: 9.74
- Cn1ccnc1C(=O)/C=C/c1ccc(CC(=O)Nc2ccccc2)cc1 [Compound 27]: 9.3
